Target: Melanin-concentrating hormone receptor 1 (Homo sapiens, UniProt Q99705)
Sequence (Q99705 whole entry): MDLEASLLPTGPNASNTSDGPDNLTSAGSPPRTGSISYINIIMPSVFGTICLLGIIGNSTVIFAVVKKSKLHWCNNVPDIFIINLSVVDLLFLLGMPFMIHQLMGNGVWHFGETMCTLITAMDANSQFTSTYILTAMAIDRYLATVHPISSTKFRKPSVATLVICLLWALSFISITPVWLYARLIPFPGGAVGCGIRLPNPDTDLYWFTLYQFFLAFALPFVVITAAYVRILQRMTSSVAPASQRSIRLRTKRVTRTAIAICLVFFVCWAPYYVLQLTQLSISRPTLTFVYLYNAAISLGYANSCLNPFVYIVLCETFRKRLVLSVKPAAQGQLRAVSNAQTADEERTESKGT
Test: Functional antagonism of MCH-R1 expressed in HEK293 cells
Lab note: compare IC50 with 300 nM, writing 1 (yes) if less and 0 (no) if equal or more.

Below are worked cases with known answers.
- N=C(N)NCCC[C@@H](NC(=O)c1csc2ccccc12)C(=O)NCc1ccc(C(F)(F)F)cc1: 0 (no)
- N=C(N)NCCC[C@@H](NC(=O)c1ccnc2ccccc12)C(=O)NCc1ccc(C(F)(F)F)cc1: 0 (no)
- N=C(N)NCCC[C@@H](NC(=O)c1cc2ccccc2s1)C(=O)NCc1ccc(C(F)(F)F)cc1: 1 (yes)
- N=C(N)NCCC[C@@H](NC(=O)c1ccc(F)c2ccccc12)C(=O)NCc1ccc(C(F)(F)F)cc1: 0 (no)

Turning to the following compound.
Exam item: Problem: For the compound `N=C(N)NCCC[C@@H](NC(=O)c1cccc2ccccc12)C(=O)NCc1ccc(C(F)(F)F)cc1` , is IC50 under 300 nM?
Marked response: 0 (no)

###

Entries annotated with measured pIC50
Target: UniProt:Q99705
Test: Functional antagonism of MCH-R1 expressed in HEK293 cells
Assay type: cell-based
The quantity pIC50 is defined as the negative base-10 logarithm of the molar concentration.

Examples with answers:
* N=C(N)NCCC[C@@H](NC(=O)c1cc2ccccc2o1)C(=O)NCc1ccc(C(F)(F)F)cc1 | 6.50
* N=C(N)NCCC[C@@H](NC(=O)c1cc2cc(F)ccc2[nH]1)C(=O)NCc1ccc(C(F)(F)F)cc1 | 7.60
* COc1ccc2[nH]c(C(=O)N[C@H](CCCNC(=N)N)C(=O)NCc3ccc(C(F)(F)F)cc3)cc2c1 | 7.11
* N=C(N)NCCC[C@@H](NC(=O)C(c1ccccc1)c1ccccc1)C(=O)NCc1ccc(C(F)(F)F)cc1 | 6.95
* N=C(N)NCCC[C@@H](NC(=O)C1c2ccccc2Oc2ccccc21)C(=O)NCc1ccc(C(F)(F)F)cc1 | 8.40
* N=C(N)NCCC[C@@H](NC(=O)c1cnc2ccccc2c1)C(=O)NCc1ccc(C(F)(F)F)cc1 | 7.02
* N=C(N)NCCC[C@@H](NC(=O)Cc1csc2ccccc12)C(=O)NCc1ccc(C(F)(F)F)cc1 | 6.00
* COc1ccc2cc(C(=O)N[C@H](CCCNC(=N)N)C(=O)NCc3ccc(C(F)(F)F)cc3)ccc2c1 | 6.35

// below: pIC50 requested for another compound
Exam item: Consider the compound `N=C(N)NCCC[C@@H](NC(=O)C1c2ccccc2-c2ccccc21)C(=O)NCc1ccc(C(F)(F)F)cc1` and give its measured pIC50.
Marked response: 8.30

###

Biological target: Melanin-concentrating hormone receptor 1 (Homo sapiens, UniProt Q99705)
Test: Functional antagonism of MCH-R1 expressed in HEK293 cells
property-measured: pIC50
The quantity pIC50 is defined as the negative base-10 logarithm of the molar concentration.

Exam item: Endpoint output: pIC50 of `N=C(N)NCCC[C@@H](NC(=O)c1cc2ccccc2[nH]1)C(=O)NCc1ccc(C(F)(F)F)cc1` . Value?
Marked response: 7.70

Exam item: Returns the measured pIC50 for the input compound. Input: `COc1cccc2cc(C(=O)N[C@H](CCCNC(=N)N)C(=O)NCc3ccc(C(F)(F)F)cc3)oc12`
Marked response: 6.21
